Below, each of the molecules is paired with its reported Plant response rating, Morningglory value.
System: morningglory
Assay: Test B pre/postemergence morningglory
Format: in vivo, Ipomoea hederacea
Conditions: Preemergence, Rate 125 g/ha; scale of 0 to 10 where 0 is no effect and 10 is complete control

Example entries begin here.
>>> print(df.to_string())
                                   molecule  endpoint_result
0  COCC(OC)n1c(=O)on(C(=O)N(c2ccc(F)cc2)C(C)C)c1=O (centres unmarked) [Compound 446]                0
1  C#CCCn1c(=O)on(C(=O)N(c2ccc(F)cc2F)C(C)C)c1=O [Compound 744]                0
2  CC(C)N(C(=O)n1oc(=O)n(CCCl)c1=O)c1ccc(Cl)cc1 [Compound 474]                0

query: I would be grateful if you could share the reported Plant response rating, Morningglory for CC(C)N(C(=O)n1oc(=O)n(CCC[Si](C)(C)C)c1=O)c1ccc(F)cc1 [Compound 461] .
result: 0

query: Follow-up item: CCC(C)n1c(=O)on(C(=O)N(c2ccc(F)cc2)C(C)C)c1=O (centres unmarked) [Compound 751]
result: 5

====

Test system: morningglory
Experiment: Test B pre/postemergence morningglory
Type: in vivo, Ipomoea hederacea
Conditions: Preemergence, Rate 125 g/ha; 0 is no effect, 10 is complete control
Below, each of the compounds is paired with its reported Morningglory plant response rating (0 to 10 scale) value.
Format: numeric value only, no unit, no commentary.

Example entries begin here.
>>> df
                                   compound  endpoint_result
0  Cc1noc(C)c1-n1c(=O)on(C(=O)N(c2ccc(F)cc2)C(C)C)c1=O [Compound 155]                0
1  Cc1ccccc1-n1c(=O)on(C(=O)N(c2ccc(Cl)cc2F)C(C)C)c1=O [Compound 195]                0
2  C=CCn1c(=O)on(C(=O)N(c2ccc(F)cc2)C2CCC2)c1=O [Compound 194]                0

Could you now consider this next compound?
query: I would be grateful if you could share the reported Morningglory plant response rating (0 to 10 scale) for CCC(CC)N(C(=O)n1oc(=O)n(-c2ccccc2C)c1=O)c1ccc(F)cc1 [Compound 193] .
result: 0

====

Below, each of the molecules is paired with its reported Rape plant response rating value.
Tested on: rape
Assay: Test B pre/postemergence rape
Assay type: in vivo, Brassica napus
Settings: Preemergence, Rate 500 g/ha; scale of 0 to 10 where 0 is no effect and 10 is complete control
Format: numeric value only, no unit, no commentary.

>>> print(df.to_string())
                                   molecule  endpoint_result
0  CC(C)N(C(=O)n1oc(=O)n(C2CCC2)c1=O)c1ccc(Cl)cc1                4
1  CCc1nc(C)c(C(C)n2c(=O)on(C(=O)N(c3ccc(Cl)cc3)C(C)C)c2=O)s1 (stereo not shown)                0
2  Cc1c(-n2c(=O)on(C(=O)N(c3ccc(F)cc3F)C(C)C)c2=O)ccc2ccccc12                0

query: I would be grateful if you could share the reported Rape plant response rating for CCOC(=O)C=C(Cn1c(=O)on(C(=O)N(c2ccccc2)C(C)C)c1=O)OCC .
result: 4

query: Follow-up item: CCc1nc(C)c(Cn2c(=O)on(C(=O)N(c3ccc(Cl)cc3)C(C)C)c2=O)s1
result: 0

query: Follow-up item: CC(C)N(C(=O)n1oc(=O)n(CCc2ccccc2)c1=O)c1ccc(F)cc1F
result: 3

query: Follow-up item: CC(=O)C(C)n1c(=O)on(C(=O)N(c2ccccc2)C(C)C)c1=O (stereo not shown)
result: 7

====

Below, each of the compounds is paired with its reported Rape plant response rating (0 to 10 scale) value.
Tested on: rape
Test: Test B pre/postemergence rape
Assay type: in vivo, Brassica napus
Conditions: Preemergence, Rate 250 g/ha
Format: numeric value only, no unit, no commentary.

Example entries begin here.
>>> df
                                smiles_data  study_system  endpoint_result
0  CCOCn1c(=O)on(C(=O)N(c2ccccc2)C(C)C)c1=O          rape                9
1  CC(C)N(C(=O)n1oc(=O)n(CCCCF)c1=O)c1ccccc1          rape                2
2  CCC(=O)Cn1c(=O)on(C(=O)N(c2ccc(Cl)cc2)C(C)C)c1=O          rape                3

Could you now consider this next compound?
query: I would be grateful if you could share the reported Rape plant response rating (0 to 10 scale) for CC(C)=CCn1c(=O)on(C(=O)N(c2ccc(Cl)cc2)C(C)C)c1=O .
result: 0

====

Below, each of the compounds is paired with its reported Giant foxtail plant response rating (0 to 10 scale) value.
Test system: giant foxtail
Experiment: Test B pre/postemergence giant foxtail
Format: in vivo, Setaria faberii
Conditions: Preemergence, Rate 125 g/ha; 0 is no effect, 10 is complete control
Format: numeric value only, no unit, no commentary.

Example entries begin here.
                                   compound   study_system  endpoint_result
0  CC1CCCCC1n1c(=O)on(C(=O)N(c2ccc(F)cc2F)C(C)C)c1=O (stereo not shown)  giant foxtail                9
1  Cc1noc(C)c1-n1c(=O)on(C(=O)N(c2ccc(F)cc2)C(C)C)c1=O  giant foxtail                0
2  Cc1cnn(C)c1-n1c(=O)on(C(=O)N(c2ccc(F)cc2)C(C)C)c1=O  giant foxtail                0

Could you now consider this next compound?
query: Give recorded Giant foxtail plant response rating (0 to 10 scale) with giant foxtail for the following compound: CC(C)N(C(=O)n1oc(=O)n(Cc2ccco2)c1=O)c1ccc(F)cc1
result: 6

====

Test system: sugar beet
Assay: Test B pre/postemergence sugar beet
Assay type: in vivo, Beta vulgaris
Conditions: Preemergence, Rate 250 g/ha
reported-endpoint: Sugarbeets plant response rating (0 to 10 scale)
Format: numeric value only, no unit, no commentary.

query: I would be grateful if you could share the reported Sugarbeets plant response rating (0 to 10 scale) for CC(=O)C(C)n1c(=O)on(C(=O)N(c2ccccc2)C(C)C)c1=O (centres unmarked) [Compound 576] .
result: 4

query: Follow-up item: CCOC(=O)C=C(Cn1c(=O)on(C(=O)N(c2ccccc2)C(C)C)c1=O)OCC [Compound 578]
result: 3

query: Follow-up item: CCOC(=O)C=C(Cn1c(=O)on(C(=O)N(c2ccc(F)cc2F)C(C)C)c1=O)OCC [Compound 519]
result: 0

query: Follow-up item: CCOCn1c(=O)on(C(=O)N(c2ccccc2)C(C)C)c1=O [Compound 563]
result: 3

query: Follow-up item: COC(=O)CCCn1c(=O)on(C(=O)N(c2ccccc2)C(C)C)c1=O [Compound 572]
result: 0

====

System: crabgrass
Test: Test B pre/postemergence crabgrass
Format: in vivo, Digitaria sanguinalis
Conditions: Postemergence, Rate 62 g/ha; scale of 0 to 10, 0 is no effect, 10 is complete control
Description: […] At the same time, these crop and weed species were also treated with postemergence applications of test chemicals formulated in the same manner. […] Treated plants and controls were maintained in a greenhouse for twelve to sixteen days, after which all species were compared to controls and visually evaluated. […]
reported-endpoint: Crabgrass plant response rating
Format: numeric value only, no unit, no commentary.

>>> print(df.to_string())
                                   compound                reported_endpoint  endpoint_result
0  CC(C)=CCn1c(=O)on(C(=O)N(c2ccc(Cl)cc2)C(C)C)c1=O [Compound 545]  Crabgrass plant response rating                0
1  CCC(=O)Cn1c(=O)on(C(=O)N(c2ccc(Cl)cc2)C(C)C)c1=O [Compound 553]  Crabgrass plant response rating                0

query: I would be grateful if you could share the reported Crabgrass plant response rating for CCOC(=O)C=C(Cn1c(=O)on(C(=O)N(c2ccc(F)cc2F)C(C)C)c1=O)OCC [Compound 519] .
result: 0

query: Follow-up item: CC(C)N(C(=O)n1oc(=O)n(CCC2OCCO2)c1=O)c1ccc(Cl)cc1 [Compound 531]
result: 2

query: Follow-up item: CCc1nc(C)c(C(C)n2c(=O)on(C(=O)N(c3ccc(Cl)cc3)C(C)C)c2=O)s1 (centres unmarked) [Compound 590]
result: 0

query: Follow-up item: CCOCn1c(=O)on(C(=O)N(c2ccccc2)C(C)C)c1=O [Compound 563]
result: 9

query: Follow-up item: CC(C)N(C(=O)n1oc(=O)n(CCc2ccccc2)c1=O)c1ccc(F)cc1F [Compound 508]
result: 9

query: Follow-up item: CCc1nc(C)c(C(C)n2c(=O)on(C(=O)N(c3ccc(F)cc3F)C(C)C)c2=O)s1 (centres unmarked) [Compound 589]
result: 0

query: Follow-up item: CC(=O)C(C)n1c(=O)on(C(=O)N(c2ccccc2)C(C)C)c1=O (centres unmarked) [Compound 576]
result: 2

query: Follow-up item: C=CCCCn1c(=O)on(C(=O)N(c2ccc(F)cc2F)C(C)C)c1=O [Compound 516]
result: 3

query: Follow-up item: CCCCCn1c(=O)on(C(=O)N(c2ccc(Cl)cc2)C(C)C)c1=O [Compound 528]
result: 3
